Catalogue of kd readings, one per entry.
- targetSystem: hIL-17A protein (Homo sapiens, UniProt Q16552)
- Sequence (Q16552 24-155): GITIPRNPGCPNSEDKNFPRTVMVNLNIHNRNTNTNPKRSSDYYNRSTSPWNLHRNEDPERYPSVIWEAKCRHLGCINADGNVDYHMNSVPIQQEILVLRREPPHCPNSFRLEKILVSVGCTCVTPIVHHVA
- assayDetails: Binding to hIL-17A protein through surface plasmon resonance (SPR, Biacore 8K)
- measurementParameters: SPR
- Method: The binding of the compounds provided herein to the hIL-17A protein was tested using SPR, and analyzed using a Biacore 8K system. A positive compound was the compound of Example 32 in WO2020/127685A1.

- compound: "CCc1nonc1C(=O)N[C@H](C(=O)Nc1ccc(-c2c(C)n[nH]c2C)nc1)C1c2ccc(F)cc2OCC12CC2 (stereo partly shown)"
  kd [s⁻¹]: "1.98e-08"
- compound: "Cc1n[nH]c(C)c1-c1ncc(NC(=O)[C@@H](NC(=O)c2ccnn2C(C)C)C2c3cc(F)c(F)cc3OCC23CC3)cc1F (stereo partly shown)"
  kd [s⁻¹]: "3.44e-08"
- compound: "Cc1nonc1C(=O)N[C@H](C(=O)Nc1ccc(-c2c(C)n[nH]c2C)cc1)C1c2ccc(F)cc2OCC12CC2 (stereo partly shown)"
  kd [s⁻¹]: "4.8e-08"
- compound: "CCc1nonc1C(=O)N[C@H](C(=O)Nc1ccc(-c2c(C)n[nH]c2C)cc1)C1c2cc(F)c(F)cc2OCC12CC2 (stereo partly shown)"
  kd [s⁻¹]: "1.87e-08"

All values here come from patent US20230227437A1.
